experiment: gradient 5% acetonitrile 3 min, to 50% in 2 min, to 85% in 15 min, held 3 min, 100 µL/min; settings: column: Zorbax Extend-C18 2.1 x 50 mm; eluents: water / acetonitrile, 0.1% formic acid
Response field label takes label 1 when RP-LC retention time is strictly below 800 s and label 0 in all other cases.

Decide: RP-LC retention time of COc1ccc(N2CCN(c3nccc4ccc(C(=O)NC5CCCCCC5)cc34)CC2)cc1 strictly below 800 s?
label 0

Decide: RP-LC retention time of Cc1nccn1CC(=O)N1C[C@@H](C)[C@H](c2nc(-c3ccncc3)no2)C1 strictly below 800 s?
label 1

Decide: RP-LC retention time of CN1c2cc(Cl)ccc2C(=O)NC12CCN(C(=O)NCCc1ccccc1)CC2 strictly below 800 s?
label 1

Decide: RP-LC retention time of CCCCNC1(c2cc3ccccc3s2)CCCCC1 strictly below 800 s?
label 0

Decide: RP-LC retention time of CCCCN1C(=O)C(C)(C(=O)N2CCN(c3ccccc3F)CC2)Oc2cccnc21 (stereo not given) strictly below 800 s?
label 0

Decide: RP-LC retention time of Cc1ccc(-n2nc(N3CCCC(C(=O)Nc4cccc(C)c4C)C3)ccc2=O)cc1Cl (stereo not given) strictly below 800 s?
label 0

Decide: RP-LC retention time of Cc1ccc(C(=O)NCc2ccc3c(c2)ncn3C)c(C)c1 strictly below 800 s?
label 1

Decide: RP-LC retention time of CC1(c2nc(-c3ccccc3)no2)CCCN(Cc2ncon2)C1 (stereo not given) strictly below 800 s?
label 1

Decide: RP-LC retention time of Cc1ccc(-c2cc3c(=O)n(CC(=O)N4CCCc5ccccc54)ccn3n2)cc1 strictly below 800 s?
label 1

Decide: RP-LC retention time of CCCn1ccc2oc(C)c(C(=O)N3CCN(CC(C)C)CC3)c2c1=O strictly below 800 s?
label 1

Decide: RP-LC retention time of O=C(Cn1c(=O)c2cccn2c2ccccc21)NCCCN1CCCCCC1 strictly below 800 s?
label 1

Decide: RP-LC retention time of Cc1cc(C)cc(N2CCC(N)C2=O)c1 (stereo not given) strictly below 800 s?
label 1

Decide: RP-LC retention time of Cc1cc(NC(=O)C(=O)NCC(c2cn(C)c3ccccc23)N(C)C)no1 (stereo not given) strictly below 800 s?
label 1

Decide: RP-LC retention time of CC1CCN(c2cncnc2-n2cc(NC(=O)NC(C)(C)C)cn2)CC1 strictly below 800 s?
label 1

Decide: RP-LC retention time of CCc1ccccc1NC(=O)C1CCCN(S(=O)(=O)c2cc(-c3noc(C)n3)cs2)C1 (stereo not given) strictly below 800 s?
label 0

Decide: RP-LC retention time of Cc1cnn(Cc2nc(-c3ccc(NC(=O)C4CCCC4)cc3)oc2C)c1 strictly below 800 s?
label 0

Decide: RP-LC retention time of CCCNC(=O)C1CCN(c2ccc(SCC(=O)Nc3ccc(F)cc3Cl)nn2)CC1 strictly below 800 s?
label 1

Decide: RP-LC retention time of CC(=O)Nc1ccc(-c2noc(C3CCN(C(=O)C4CC4)CC3)n2)cc1 strictly below 800 s?
label 1

Decide: RP-LC retention time of Cc1cc(C(=O)N2C[C@@H](F)C[C@H]2C(=O)N2CCc3ccccc3C2)n(C)n1 strictly below 800 s?
label 1

###

I'd appreciate it if you could supply RP-LC retention time values for the items below.
test: gradient 5% acetonitrile 3 min, to 50% in 2 min, to 85% in 15 min, held 3 min, 100 µL/min; settings: column: Zorbax Extend-C18 2.1 x 50 mm; eluents: water / acetonitrile, 0.1% formic acid
Please reply with the bare figure in s and do not write the unit itself.

Any idea what its RP-LC retention time is? The compound is CCOc1ccc(Nc2c(-c3ccc(C(=O)O)cc3)nc3cnccn23)cc1
729

Any idea what its RP-LC retention time is? The compound is Cc1ncc2c(n1)C[C@@H]1CC[C@H]2N1S(=O)(=O)c1ccc(F)cc1
720

Any idea what its RP-LC retention time is? The compound is COc1cc2c(cc1OC)C(C(=O)N1CCOCC1)C(c1ccc(SC)cc1)N(C)C2=O (stereo not given)
726

Any idea what its RP-LC retention time is? The compound is Cc1ccn2cc(-c3ccc(NC(=O)c4ccc(F)cc4)cc3)nc2n1
648

Any idea what its RP-LC retention time is? The compound is Cc1oc(-c2[nH]ncc2C(=O)N2CCCCC2)cc1S(=O)(=O)N1CCOCC1
654

###

test: gradient 5% acetonitrile 3 min, to 50% in 2 min, to 85% in 15 min, held 3 min, 100 µL/min; details: column: Zorbax Extend-C18 2.1 x 50 mm; eluents: water / acetonitrile, 0.1% formic acid
I'd appreciate it if you could supply RP-LC retention time values for the items below.
Please reply with the bare figure in s and do not write the unit itself.

Any idea what its RP-LC retention time is? The compound is O=c1cccnn1CCCNS(=O)(=O)c1ccc(F)c(C(F)(F)F)c1
741

Any idea what its RP-LC retention time is? The compound is O=C(O)C1CCN(c2nc3ccc(-c4ccncc4)nc3s2)CC1
588

Any idea what its RP-LC retention time is? The compound is COC(=O)C1=CC(=O)N2CCN=C2S1
691

Any idea what its RP-LC retention time is? The compound is O=C(NC1CC1)c1ccccc1OCC1CCN(C(=O)C2CCCO2)CC1 (stereo not drawn)
685

Any idea what its RP-LC retention time is? The compound is O=C(c1cc(N2C(=O)CCS2(=O)=O)ccc1Cl)N1CCN(c2ccccn2)CC1
566

Any idea what its RP-LC retention time is? The compound is COc1cccc(CNC(=O)c2cn(-c3cc(N4CCOCC4)ncn3)cn2)c1
752

Any idea what its RP-LC retention time is? The compound is CCOCc1nc(C2CCCN(C(=O)NC3CCCCC3)C2)no1 (stereo not drawn)
804

Any idea what its RP-LC retention time is? The compound is Cc1ccc(-c2csc(NC(=O)CN3CCN(Cc4ccc5c(c4)OCO5)CC3)n2)cc1
737

Any idea what its RP-LC retention time is? The compound is Cc1ccc(C)c(NC(=O)N2CCCC(C)(C(=O)NCc3ccccc3)C2)c1 (stereo not drawn)
967

Any idea what its RP-LC retention time is? The compound is COc1ccc(-c2cn3c(CC(=O)Nc4cc(OC)ccc4OC)csc3n2)cc1
780

Any idea what its RP-LC retention time is? The compound is Cc1ccccc1Cn1c(CN2CCC(C(=O)NCCC(C)C)CC2)cc2ccccc21
822

Any idea what its RP-LC retention time is? The compound is CCc1ccc(NC(=O)N2CC(c3nc(C)no3)C3(CCOCC3)C2)cc1 (stereo not drawn)
770

Any idea what its RP-LC retention time is? The compound is COC(=O)c1c(C)[nH]c(C(=O)N2CCC(CC(=O)N3CCN(c4ccccn4)CC3)CC2)c1C
606

Any idea what its RP-LC retention time is? The compound is Cc1cc(NC(=O)C(C)C)nn1Cc1ccccc1
778

Any idea what its RP-LC retention time is? The compound is COc1ccc(OC)c(-c2cn3ccn(-c4ccc(Br)cc4)c(=O)c3n2)c1
912

Any idea what its RP-LC retention time is? The compound is COc1ccccc1CNC(=O)C1CCCN(S(=O)(=O)c2cc(-c3noc(C)n3)cs2)C1 (stereo not drawn)
892

Any idea what its RP-LC retention time is? The compound is O=C(NCc1ccccc1Cl)C(=O)c1cn(CC(=O)N2CCCC2)c2ccccc12
968

Any idea what its RP-LC retention time is? The compound is Cc1nnn(C23CC4CC(CC(C(=O)N5CCN(c6ccccn6)CC5)(C4)C2)C3)n1
597

Any idea what its RP-LC retention time is? The compound is CC(C)NC(=O)C1(c2ccc(NS(C)(=O)=O)cc2)CCCCC1
782

Any idea what its RP-LC retention time is? The compound is CCC(=O)N(C1CCOCC1)C1CCN(S(=O)(=O)c2ccc(F)c(Cl)c2)CC1
884

Any idea what its RP-LC retention time is? The compound is Cc1ccccc1NC(=O)CSc1nnc2c3cc(-c4ccccc4)nn3ccn12
841

Any idea what its RP-LC retention time is? The compound is CCc1ccc(N2C(=O)CN(Cc3ccccc3Cl)[C@H]3CS(=O)(=O)C[C@H]32)cc1
910

Any idea what its RP-LC retention time is? The compound is Cc1ccc(CNC(=O)c2nc3cccnc3n(C)c2=O)cc1
787

Any idea what its RP-LC retention time is? The compound is O=C(Cn1ccn2nc(-c3ccc(F)cc3)c(CO)c2c1=O)Nc1ccc2c(c1)CCC2
908

Any idea what its RP-LC retention time is? The compound is COc1cccc(-c2cc3n(n2)CCCN(C(=O)Cc2ccsc2)C3)c1
587

Any idea what its RP-LC retention time is? The compound is O=C([C@@H]1C[C@H](Oc2ccccc2)CN1C(=O)CCCc1c[nH]c2ccccc12)N1CCCC1
865

Any idea what its RP-LC retention time is? The compound is O=C(N1CCC(c2nc(-c3ccccc3)no2)C1)C1(c2ccccc2)CC1 (stereo not drawn)
994

Any idea what its RP-LC retention time is? The compound is CC(C)c1ccc(NC(=O)Cn2ncc3c(c2=O)N(CC2CC2)C(=O)CS3)cc1
934

Any idea what its RP-LC retention time is? The compound is O=C(COc1ccc(Cl)cc1Cl)NC1CC(=O)N(C2CC2)C1 (stereo not drawn)
701

Any idea what its RP-LC retention time is? The compound is Cc1cccc(NC(=O)Cn2c(=O)n(-c3ccccc3)c3ncccc32)c1C
832

Any idea what its RP-LC retention time is? The compound is Cc1ccc(-c2nc(-c3ccc4c(c3)ncn4CCN3CCOCC3)no2)cc1C
685

Any idea what its RP-LC retention time is? The compound is CCn1c(=O)sc2cc(S(=O)(=O)N3CCC(C(=O)Nc4ccc(C)cn4)CC3)ccc21
735

Any idea what its RP-LC retention time is? The compound is O=C(Cc1ccc(Cl)cc1)N1C[C@@H]2C[C@H]1C[C@@H]2NS(=O)(=O)c1cccs1
838

Any idea what its RP-LC retention time is? The compound is O=C(Cn1cnc2nc3c(cc2c1=O)CCCC3)N1CCN(C(=O)c2ccco2)CC1
622

Any idea what its RP-LC retention time is? The compound is O=C(CCC(=O)N1CC2CCCN2c2ccccc21)NCCCN1CCCCC1 (stereo not drawn)
646

Any idea what its RP-LC retention time is? The compound is COc1ccc(Cn2nc3c(S(=O)(=O)N4CCOCC4)cccn3c2=O)cc1F
773

Any idea what its RP-LC retention time is? The compound is CCCn1cnnc1C1CCCCN1S(=O)(=O)c1cccc(C#N)c1 (stereo not drawn)
748

Any idea what its RP-LC retention time is? The compound is CCc1ccc(-c2csc(Cc3nc(-c4ccc5c(c4)OCO5)no3)n2)cc1
1300
